- tested-target: CD3ε homodimer protein (human, UniProt P07766 23-126, limits assumed)
- Sequence (P07766 23-126 limits assumed): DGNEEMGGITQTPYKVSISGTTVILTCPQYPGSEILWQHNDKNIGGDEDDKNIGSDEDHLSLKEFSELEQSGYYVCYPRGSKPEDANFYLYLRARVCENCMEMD
- protocol-description: SPR, immobilized CD3ε homodimer;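 note: biacore T200 surface plasmon resonance at 25 °C, antibody variants flowed as analytes over amine-coupled CD3ε homodimer on a CM4 chip, variant binding amount divided by that of GLS3000 antibody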
value-kind: ratio of amounts bound (vs GLS3000)
Enter a number only.

GLS3000 L27bD (antibody, name in Kabat numbering, V domains shown, one-arm format as m2) VH: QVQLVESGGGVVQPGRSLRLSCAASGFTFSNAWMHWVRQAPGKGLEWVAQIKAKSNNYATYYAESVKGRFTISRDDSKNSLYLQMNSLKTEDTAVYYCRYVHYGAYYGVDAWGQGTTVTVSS VL: DIVMTQSPLSLPVTPGEPASISCRSSQSDVHSNRNTYLHWYQQKPGQAPRLLIYKVSNRFSGVPDRFSGSGSGTDFTLKISRVEAEDVGVYYCGQGTQVPYTFGQGTKLEIK
0.17
GLS3000 N53D (antibody, name in Kabat numbering, V domains shown, one-arm format as m2) VH: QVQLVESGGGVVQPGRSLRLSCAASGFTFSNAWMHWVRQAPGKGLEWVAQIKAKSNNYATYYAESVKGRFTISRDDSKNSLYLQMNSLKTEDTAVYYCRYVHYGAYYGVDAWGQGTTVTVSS VL: DIVMTQSPLSLPVTPGEPASISCRSSQSLVHSNRNTYLHWYQQKPGQAPRLLIYKVSDRFSGVPDRFSGSGSGTDFTLKISRVEAEDVGVYYCGQGTQVPYTFGQGTKLEIK
0.34
GLS3000 T92I (antibody, name in Kabat numbering, V domains shown, one-arm format as m2) VH: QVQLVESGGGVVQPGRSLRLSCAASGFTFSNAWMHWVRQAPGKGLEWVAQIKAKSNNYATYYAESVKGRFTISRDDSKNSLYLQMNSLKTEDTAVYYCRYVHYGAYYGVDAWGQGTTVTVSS VL: DIVMTQSPLSLPVTPGEPASISCRSSQSLVHSNRNTYLHWYQQKPGQAPRLLIYKVSNRFSGVPDRFSGSGSGTDFTLKISRVEAEDVGVYYCGQGIQVPYTFGQGTKLEIK
0.34
GLS3000 G89A (antibody, name in Kabat numbering, V domains shown, one-arm format as m2) VH: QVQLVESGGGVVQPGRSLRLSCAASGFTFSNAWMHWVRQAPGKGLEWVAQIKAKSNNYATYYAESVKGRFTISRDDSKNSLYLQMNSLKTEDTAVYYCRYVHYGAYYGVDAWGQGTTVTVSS VL: DIVMTQSPLSLPVTPGEPASISCRSSQSLVHSNRNTYLHWYQQKPGQAPRLLIYKVSNRFSGVPDRFSGSGSGTDFTLKISRVEAEDVGVYYCAQGTQVPYTFGQGTKLEIK
1.13

**Q:** // returns reported ratio of amounts bound (vs GLS3000) for input GLS3000 F55Y (antibody, name in Kabat numbering, V domains shown, one-arm format as m2) VH: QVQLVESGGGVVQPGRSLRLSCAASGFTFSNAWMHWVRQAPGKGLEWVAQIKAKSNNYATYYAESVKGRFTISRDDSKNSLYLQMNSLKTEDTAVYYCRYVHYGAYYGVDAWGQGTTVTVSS VL: DIVMTQSPLSLPVTPGEPASISCRSSQSLVHSNRNTYLHWYQQKPGQAPRLLIYKVSNRYSGVPDRFSGSGSGTDFTLKISRVEAEDVGVYYCGQGTQVPYTFGQGTKLEIK
**A:** 0.92

The origin of these recorded values is patent US20220040297A1.
